Values were extracted from patent US20210246166A1.

Target: T1, recombinant rat MASP1 active protease (amino acids 302-704, C-terminal His Tag) (rat, UniProt Q8CHN8 302-704)
T1 sequence: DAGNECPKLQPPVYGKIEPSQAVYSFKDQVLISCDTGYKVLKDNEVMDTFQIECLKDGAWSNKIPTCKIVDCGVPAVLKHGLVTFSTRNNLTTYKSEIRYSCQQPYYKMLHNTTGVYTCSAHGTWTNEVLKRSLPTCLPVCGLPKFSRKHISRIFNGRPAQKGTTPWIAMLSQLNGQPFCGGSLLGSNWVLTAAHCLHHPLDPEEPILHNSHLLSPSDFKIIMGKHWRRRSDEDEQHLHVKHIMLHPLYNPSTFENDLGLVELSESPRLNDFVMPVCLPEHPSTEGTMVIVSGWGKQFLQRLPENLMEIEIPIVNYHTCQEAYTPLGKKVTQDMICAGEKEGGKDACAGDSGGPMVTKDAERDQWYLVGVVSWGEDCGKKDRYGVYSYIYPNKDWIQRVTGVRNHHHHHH
Experiment: cell-based or functional assay
Numbered stars: 1 amine (or outer) side, 2 acyl side, 3 side chain; on linkers, the order of the positions; unused ones are H or OH. Bridge positions count the residues as written; N and C are the ends. Square brackets hold non-standard residues; d marks the D form. Ends that are not written are not given here. * marks the point of attachment. X5 = Tetrahydropyranyl‑4‑acetic acid, O=C(CC1CCOCC1)*; Nip(3R) = O=C([C@@H]1CCCN([*:1])C1)[*:2]; Oic = O=C(O)[C@@H]1C[C@@H]2CCCC[C@@H]2N1; βPro(3S) = O=C([C@H]1CCN([*:1])C1)[*:2]; tBuAla = CC(C)(C)C[C@H](N)C(=O)O; Pen = CC(C)(S)[C@H](N)C(=O)O; ΔPro = O=C(O)[C@@H]1C=CCN1; NMeC = CN[C@@H](CS)C(=O)O; NMeA = CN[C@@H](C)C(=O)O; Sar = CNCC(=O)O
# rat MASP1 IC50 listing for each entry below
Expressed in nM, but write only the number.

AICSRSLPPI[Pen]IPD-NH2 (disulfide 3-11; N-terminus assumed; SMILES CC[C@H](C)[C@H](NC(=O)[C@H](C)N)C(=O)N[C@H]1CSSC(C)(C)[C@@H](C(=O)N[C@H](C(=O)N2CCC[C@H]2C(=O)N[C@@H](CC(=O)O)C(N)=O)[C@@H](C)CC)NC(=O)[C@H]([C@@H](C)CC)NC(=O)[C@@H]2CCCN2C(=O)[C@@H]2CCCN2C(=O)[C@H](CC(C)C)NC(=O)[C@H](CO)NC(=O)[C@H](CCCNC(=N)N)NC(=O)[C@H](CO)NC1=O) [Example 170: AIC+SRSLPPI-(Pen)+IPD-NH2]	54
X5-ICSRS[tBuAla]PPI[NMeC]I-NH2 (disulfide 2-10; SMILES CC[C@H](C)[C@H](NC(=O)[C@@H]1CSSC[C@H](NC(=O)[C@@H](NC(=O)CC2CCOCC2)[C@@H](C)CC)C(=O)N[C@@H](CO)C(=O)N[C@@H](CCCNC(=N)N)C(=O)N[C@@H](CO)C(=O)N[C@@H](CC(C)(C)C)C(=O)N2CCC[C@H]2C(=O)N2CCC[C@H]2C(=O)N[C@@H]([C@@H](C)CC)C(=O)N1C)C(N)=O) [Example 305: (Tetrahydropyranyl-4-acetic acid)-IC+SRS-((tBu)A)-PPI-((N-Me)C)+I-NH2]	76
[Sar]ICSRSLP[Oic]I[Pen]IP[βPro(3S)]-OH (disulfide 3-11; N-terminus assumed; SMILES CC[C@H](C)[C@H](NC(=O)CNC)C(=O)N[C@H]1CSSC(C)(C)[C@@H](C(=O)N[C@H](C(=O)N2CCC[C@H]2C(=O)N2CC[C@H](C(=O)O)C2)[C@@H](C)CC)NC(=O)[C@H]([C@@H](C)CC)NC(=O)[C@@H]2C[C@@H]3CCCC[C@@H]3N2C(=O)[C@@H]2CCCN2C(=O)[C@H](CC(C)C)NC(=O)[C@H](CO)NC(=O)[C@H](CCCNC(=N)N)NC(=O)[C@H](CO)NC1=O) [Example 456: ((N-Me)G)-IC+SRSLP-(Oic)-I-(Pen)+IP-((S)-Pyrrolidine-3-carboxylic acid)-OH]	39
[Sar]ICSRSLP[Oic]I[Pen]IPDK-OH (disulfide 3-11; N-terminus assumed; SMILES CC[C@H](C)[C@H](NC(=O)CNC)C(=O)N[C@H]1CSSC(C)(C)[C@@H](C(=O)N[C@H](C(=O)N2CCC[C@H]2C(=O)N[C@@H](CC(=O)O)C(=O)N[C@@H](CCCCN)C(=O)O)[C@@H](C)CC)NC(=O)[C@H]([C@@H](C)CC)NC(=O)[C@@H]2C[C@@H]3CCCC[C@@H]3N2C(=O)[C@@H]2CCCN2C(=O)[C@H](CC(C)C)NC(=O)[C@H](CO)NC(=O)[C@H](CCCNC(=N)N)NC(=O)[C@H](CO)NC1=O) [Example 463: ((N-Me)G)-IC+SRSLP-(Oic)-I-(Pen)+IPDK-OH]	190
[(R)‑Piperidine‑3‑Carboxylic Acid]ICSRSLP[Oic]I[Pen]IPD-OH (disulfide 3-11) [Example 488: ((R)-Piperidine-3-Carboxylic Acid)-IC+SRSLP-(Oic)-I-(Pen)+IPD-OH]	41
AICSRSL[ΔPro][Oic]I[Pen]IPD-OH (disulfide 3-11; N-terminus assumed; SMILES CC[C@H](C)[C@H](NC(=O)[C@H](C)N)C(=O)N[C@H]1CSSC(C)(C)[C@@H](C(=O)N[C@H](C(=O)N2CCC[C@H]2C(=O)N[C@@H](CC(=O)O)C(=O)O)[C@@H](C)CC)NC(=O)[C@H]([C@@H](C)CC)NC(=O)[C@@H]2C[C@@H]3CCCC[C@@H]3N2C(=O)[C@@H]2C=CCN2C(=O)[C@H](CC(C)C)NC(=O)[C@H](CO)NC(=O)[C@H](CCCNC(=N)N)NC(=O)[C@H](CO)NC1=O) [Example 237: AIC+SRSL-(L-dehydroproline)-(Oic)-I-(Pen)+IPD-OH]	1000
[NMeA]ICSRS[tBuAla]P[(3R,6R)‑1,1‑Difluoro‑5‑azaspiro(2.4)heptane‑6‑carboxylic acid (enantiomer 1)]I[Pen]IP-NH2 (disulfide 3-11)	29
AICSRSLP[Oic]ICIPD-OH (disulfide 3-11; N-terminus assumed; SMILES CC[C@H](C)[C@H](NC(=O)[C@H](C)N)C(=O)N[C@H]1CSSC[C@@H](C(=O)N[C@H](C(=O)N2CCC[C@H]2C(=O)N[C@@H](CC(=O)O)C(=O)O)[C@@H](C)CC)NC(=O)[C@H]([C@@H](C)CC)NC(=O)[C@@H]2C[C@@H]3CCCC[C@@H]3N2C(=O)[C@@H]2CCCN2C(=O)[C@H](CC(C)C)NC(=O)[C@H](CO)NC(=O)[C@H](CCCNC(=N)N)NC(=O)[C@H](CO)NC1=O) [Example 153: AIC+SRSLP-(Oic)-IC+IPD-OH]	40

Shifting focus to the binder that follows.
For this binder ( [Nip(3R)]ICSRSLP[Oic]I[Pen]I-OH (disulfide 3-11; N-terminus assumed; SMILES CC[C@H](C)[C@H](NC(=O)[C@H]1NC(=O)[C@H]([C@@H](C)CC)NC(=O)[C@@H]2C[C@@H]3CCCC[C@@H]3N2C(=O)[C@@H]2CCCN2C(=O)[C@H](CC(C)C)NC(=O)[C@H](CO)NC(=O)[C@H](CCCNC(=N)N)NC(=O)[C@H](CO)NC(=O)[C@@H](NC(=O)[C@@H](NC(=O)[C@@H]2CCCNC2)[C@@H](C)CC)CSSC1(C)C)C(=O)O) [Example 459: ((R)-Piperidine-3-carboxylic acid)-IC+SRSLP-(Oic)-I-(Pen)+I-OH] ), measured rat MASP1 IC50 is 180
